# System: MCF-7 breast cancer cell line
# assay_method_text: MTT assay against breast cancer cell line
# Format: cell-based
# test_settings: Homo sapiens, MCF7; MCF-7, 100 uM, 72 hours after treatment; read-out: % Live cells
# Procedure: In another embodiment, the functionalized maleimides and isomaleimides of Formula (I) are useful as antimicrobials and anti-cancer agents. MTT assay of compounds of Formula (I) is summarized below in Table-1 The compounds were tested against breast cancer cell line at 100 and 300 μM concentrations and % live and % dead cells were determined. The compounds were evaluated for anti-cancer activity by testing them against breast cancer cell lines obtained from NCCS, Pune, India. […]
assay_readout: viability at 100 µM (%)
Numeric answer only, unit % assumed.

-- ask Tell me viability at 100 µM reported for CCOC(=O)CC1=C(Cc2c3ccccc3cc3ccccc23)C(=O)O/C1=N\C1CCC(C)CC1 (stereo not drawn)
-- reply 72.5

-- ask Tell me viability at 100 µM reported for CCOC(=O)CC1=C(Cc2ccc(Cl)cc2)C(=O)O/C1=N\C1CCC(C)CC1 (stereo not drawn)
-- reply 54.7

-- ask Tell me viability at 100 µM reported for CCOC(=O)CC1=C(Cc2cccc(C(F)(F)F)c2)C(=O)O/C1=N\C1CCC(C)CC1 (stereo not drawn)
-- reply 50.9

-- ask Tell me viability at 100 µM reported for CCOC(=O)CC1=C(Cc2cccc(Oc3ccccc3)c2)C(=O)O/C1=N\C1CCC(C)CC1 (stereo not drawn)
-- reply 67.1

-- ask Tell me viability at 100 µM reported for CCOC(=O)CC1=C(Cc2cc(OC)ccc2OC)C(=O)O/C1=N\C1CCC(C)CC1 (stereo not drawn)
-- reply 67.1

-- ask Tell me viability at 100 µM reported for CCOC(=O)CC1=C(Cc2ccccc2F)C(=O)O/C1=N\C1CCC(C)CC1 (stereo not drawn)
-- reply 73.4

-- ask Tell me viability at 100 µM reported for CCOC(=O)CC1=C(Cc2ccc3ccccc3c2)C(=O)O/C1=N\C1CCC(C)CC1 (stereo not drawn)
-- reply 48.3

-- ask Tell me viability at 100 µM reported for CCOC(=O)CC1=C(C(c2ccccc2)c2ccccc2)C(=O)O/C1=N\C1CCC(C)CC1 (stereo not drawn)
-- reply 56.5

-- ask Tell me viability at 100 µM reported for CCOC(=O)CC1=C(Cc2ccc(F)c(F)c2)C(=O)O/C1=N\C1CCC(C)CC1 (stereo not drawn)
-- reply 73.6
